Target: Neuronal acetylcholine receptor subunit alpha-7 (Homo sapiens)
Sequence (P36544 whole entry): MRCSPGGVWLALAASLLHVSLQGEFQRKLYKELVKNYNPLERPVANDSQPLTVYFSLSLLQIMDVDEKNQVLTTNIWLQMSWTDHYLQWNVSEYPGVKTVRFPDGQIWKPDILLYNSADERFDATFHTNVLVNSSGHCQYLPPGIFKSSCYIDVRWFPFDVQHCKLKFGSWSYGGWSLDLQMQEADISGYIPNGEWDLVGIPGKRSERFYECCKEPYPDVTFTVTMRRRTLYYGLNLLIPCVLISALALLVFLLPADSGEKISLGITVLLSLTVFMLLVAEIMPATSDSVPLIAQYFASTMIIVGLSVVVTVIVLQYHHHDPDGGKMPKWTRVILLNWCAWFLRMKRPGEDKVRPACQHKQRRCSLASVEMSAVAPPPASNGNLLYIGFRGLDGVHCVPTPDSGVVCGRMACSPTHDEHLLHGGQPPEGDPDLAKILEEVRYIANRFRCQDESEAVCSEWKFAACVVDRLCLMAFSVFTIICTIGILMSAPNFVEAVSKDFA
Assay: Binding affinity at homopentameric Nicotinic acetylcholine receptor alpha-7 subtype using [3H]-alpha-bungarotoxin as radioligand
Assay endpoint: Ki (nM)
Give a bare numeral; the unit nM is implied.

Observe how each entry below is paired with its result.
{"Compound": "Clc1ccc(C2CC3CCC2N3)cn1 (stereo not given) [EPIBATIDINE]", "Ki, nM": 25}
{"Compound": "CN1CCCCC1c1cccnc1 (stereo not given)", "Ki, nM": 9700}

Enquiry: Report Ki for c1cncc(C2CCCCN2)c1 (stereo not drawn) [DL-ANABASINE] please.
Return: 450

Enquiry: Cool, now C[N+](C)(C)C [TETRAMETHYLAMMONIUM ION]
Return: 2300

Enquiry: Cool, now c1cncc([C@@H]2CCCN2)c1 [NORNICOTINE]
Return: 730

* * *

Molecular target: Neuronal acetylcholine receptor; alpha4/beta2 (Homo sapiens, UniProt P17787+P43681)
Sequence (P17787 whole entry): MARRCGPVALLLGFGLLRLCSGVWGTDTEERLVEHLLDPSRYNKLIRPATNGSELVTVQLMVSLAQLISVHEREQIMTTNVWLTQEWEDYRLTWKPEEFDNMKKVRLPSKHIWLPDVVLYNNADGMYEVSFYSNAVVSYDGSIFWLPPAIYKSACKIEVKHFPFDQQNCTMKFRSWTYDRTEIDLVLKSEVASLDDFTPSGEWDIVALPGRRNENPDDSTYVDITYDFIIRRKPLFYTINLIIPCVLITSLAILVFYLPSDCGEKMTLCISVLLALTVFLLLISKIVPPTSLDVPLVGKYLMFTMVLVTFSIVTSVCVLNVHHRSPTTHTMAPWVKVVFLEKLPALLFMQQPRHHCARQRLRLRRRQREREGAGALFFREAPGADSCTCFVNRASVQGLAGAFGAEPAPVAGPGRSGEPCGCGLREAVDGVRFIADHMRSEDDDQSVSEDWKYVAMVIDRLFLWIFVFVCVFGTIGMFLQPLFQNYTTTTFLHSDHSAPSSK
Sequence (P43681 whole entry): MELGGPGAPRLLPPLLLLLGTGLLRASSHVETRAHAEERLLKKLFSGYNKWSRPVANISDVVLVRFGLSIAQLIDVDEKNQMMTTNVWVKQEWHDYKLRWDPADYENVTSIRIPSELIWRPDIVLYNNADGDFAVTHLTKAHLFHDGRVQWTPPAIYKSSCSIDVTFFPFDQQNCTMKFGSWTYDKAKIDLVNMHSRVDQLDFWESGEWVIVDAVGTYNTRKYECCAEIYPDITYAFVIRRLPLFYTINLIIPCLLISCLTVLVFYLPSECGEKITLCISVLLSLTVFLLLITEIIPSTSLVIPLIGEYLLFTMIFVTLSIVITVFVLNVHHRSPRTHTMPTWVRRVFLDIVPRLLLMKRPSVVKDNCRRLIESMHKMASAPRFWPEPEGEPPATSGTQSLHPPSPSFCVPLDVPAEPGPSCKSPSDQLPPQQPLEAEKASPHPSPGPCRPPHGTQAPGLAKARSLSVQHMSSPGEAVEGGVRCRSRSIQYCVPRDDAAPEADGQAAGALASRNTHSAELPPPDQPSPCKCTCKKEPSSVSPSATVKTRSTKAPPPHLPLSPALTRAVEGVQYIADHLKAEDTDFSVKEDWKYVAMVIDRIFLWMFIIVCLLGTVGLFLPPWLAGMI
Experiment: Binding affinity at heteropentameric Nicotinic acetylcholine receptor alpha4-beta2 subtype using […] as radioligand
pKi: −log10 of the molar value.
Assign condition met whenever pKi does not fall below 7; assign condition not met whenever it does.

{"Compound": "CN1C2CCC1C(c1ccc(Cl)nc1)C2 (stereo not given)", "Class name": "condition met"}

Enquiry: Please tell me: is the compound `C[N+](C)(C)C` at or over 7 in terms of pKi?
Return: condition met

Enquiry: Cool, now c1cncc(C2CCN2)c1 (stereo not given)
Return: condition met

Enquiry: Cool, now CN1CCCCC1c1cccnc1 (stereo not given)
Return: condition not met
